Assay: qHTS Assay for Lipid Storage Modulators (AID 1519)
Conditions: Drosophila S3 cells, BODIPY lipid droplet/cell ratio, laser cytometry; measured here: lipid channel max response; cells loaded with oleic acid
Experimental: NIH Molecular Libraries Probe Production Centers Network [MLPCN] NIH Chemical Genomics Center [NCGC] Assay Submitter (PI): Beller, Mathias; Max-Planck-Institut fur Biophysikalische Chemie […] We dispensed 4 uL of cells at 1.25 x 10^6 cells/mL into LoBase Aurora COC 1,536-well plates (black walled, clear bottom) with a bottle-valve solenoid-based dispenser (Aurora) to obtain 5,000 cells/well. […] The ratio of the total intensity in PMT channel 1 over total intensity of channel 3 was also calculated. […]
Results filed as inconclusive are left out.
measured_property: max response (%)
Please give a number only; it is taken to be in %.

Enquiry: Which max response reading was recorded for the molecule "C=CCc1ccc2c(c1)OCO2" ?
Return: 31.4

Enquiry: Quick one: COc1cc2c(cc1OC)[C@@H]1C(=O)c3ccc4oc(C(C)C)cc4c3OC1CO2 (stereo partly specified)
Return: -80.9

Enquiry: Quick one: "O=C1C(Cl)=C(Cl)C(=O)C(Cl)=C1Cl"
Return: -11.5

Enquiry: Quick one: "Cc1ccccc1-c1cncnc1NCCc1cnc[nH]1"
Return: 17.7

Enquiry: Quick one: "O=C(OC1CCN(CCCl)CC1)C(c1ccccc1)c1ccccc1"
Return: -14.8

Enquiry: Quick one: "CC(C)OC(=O)Nc1cccc(Cl)c1"
Return: 15.8

Enquiry: Quick one: "CN1CC[C@@]2(CCCN(C(=O)c3ccncc3)C2)C1"
Return: 8.97

Enquiry: Quick one: O=C1CC2OCC=C3CN4CC[C@]56c7ccccc7N1[C@H]5[C@H]2C3C[C@H]46 (stereo partly specified)
Return: 20.7

Enquiry: Quick one: COC1=CC2C3Cc4ccc(OC)c(O)c4[C@]2(CCN3C)CC1=O (stereo partly specified)
Return: 0.618

Enquiry: Quick one: CC1(C)C(O)CC(O)[C@]2(C)C1CC(=O)[C@]1(C)C2CC[C@@]2(C)C(c3ccoc3)OC(=O)C3OC321 (stereo partly specified)
Return: 11.8

Enquiry: Quick one: C/C=C(\C)C(=O)OC1CC(OC(C)=O)[C@@]2(C(=O)OC)COC3C2[C@@]12CO[C@](O)(C(=O)OC)C2[C@](C)(C12OC1(C)C1CC2OC2OC=C[C@]21O)C3O (stereo partly specified)
Return: -10.6

Enquiry: Quick one: "c1cnc(N2CC3(CCNCC3)C2)nc1"
Return: 15.7

Enquiry: Quick one: "CN1CCc2cc3c(cc2[C@@H]1O)OCO3"
Return: 3.98

Enquiry: Quick one: "C/C=C/c1ccc2c(c1)OCO2"
Return: 20.9

Enquiry: Quick one: "CN1CC[C@@]2(CCCN(C(=O)c3csnn3)C2)C1"
Return: -16.8

Enquiry: Quick one: "CC(=O)O[C@H]1C[C@@H](O[C@@H]2[C@H](C)O[C@H](O[C@@H]3[C@H](C)O[C@H](O[C@@H]4CC[C@@]5(C)[C@@H](CC[C@]6(C)[C@]5(C)C[C@H](O)[C@]5(C)[C@@H](C7=CC(=O)OC7)CC[C@@]56O)C4)C[C@@H]3O)C[C@@H]2O)O[C@@H](C)[C@H]1O[C@H]1O[C@@H](CO)[C@@H](O)[C@@H](O)[C@@H]1O"
Return: -8.38

Enquiry: Quick one: "CNC(=O)N(C)c1nnc(C(C)(C)C)s1"
Return: 25.2

Enquiry: Quick one: "CN1C[C@H](C(=O)N[C@]2(C)O[C@]3(O)[C@H]4CCCN4C(=O)[C@H](Cc4ccccc4)N3C2=O)C[C@H]2c3cccc4[nH]cc(c34)C[C@@H]21"
Return: -19.9

Enquiry: Quick one: CC(=O)CC1CCCCN1 (stereo unspecified)
Return: 14.1

Enquiry: Quick one: "c1csc(CN2CCC3(CCNCC3)CC2)n1"
Return: 11

Enquiry: Quick one: "C=CCc1ccc(OC)cc1"
Return: 23.9
